System: BEL-7404 tumor cell line
Assay: Antiproliferative activity against human Bel7404 cells after 48 hrs by MTT assay
Format: functional, cell-based
Details: BEL-7404, 48 h
Measured IC50, listed per entry.
Only the number, expressed in µM, is required.

Completed entries (count: 3):
- molecule_smiles: "C=C1C(=O)[C@]23[C@H](O)[C@H]1CC[C@H]2[C@@]12CO[C@@]3(O)[C@@H](O)[C@@H]1C(C)(C)C[C@H]1O[C@H]12"
  target_under_test: "BEL-7404 tumor cell line"
  IC50 (µM): 13.7
- molecule_smiles: "C=C1C(=O)[C@]23[C@H](O)[C@H]1CC[C@H]2[C@]12C=CC(=O)C(C)(C)[C@H]1[C@H](O)[C@]3(O)OC2"
  target_under_test: "BEL-7404 tumor cell line"
  IC50 (µM): 16.2
- molecule_smiles: "C=C1C(=O)[C@]23[C@H](O)[C@H]1CC[C@H]2[C@]12C=CCC(C)(C)[C@H]1[C@H](O)[C@]3(O)OC2"
  target_under_test: "BEL-7404 tumor cell line"
  IC50 (µM): 3.91

Please find the next molecule below.
Reported IC50 for "C=C1C(=O)[C@]23[C@H](OC(=O)/C=C/c4ccccc4OC)[C@H]1CC[C@H]2[C@]12C=CCC(C)(C)[C@H]1[C@H](O)[C@]3(O)OC2" : what is it?
6.06

The reported numbers originate from ChEMBL document CHEMBL3997810.
